assay: Plasma uridine after oral uridine or TAU, with or without dipyridamole (Example 12); assay type: in vivo, female Balb/C mice; details: female, Balb/C, mouse, plasma, oral, 1000 mg/kg; 0 hr (basal, before TAU or uridine); DPM 25 mg/kg i.p. 30 min before where given; read-out: Plasma uridine levels
Measurement Label: concentration at 0 h (nM)
One number for each entry, in nM.

Q: # input compound: O=c1ccn([C@@H]2O[C@H](CO)[C@@H](O)[C@H]2O)c(=O)[nH]1 [Urd, uridine] ; wanted: its concentration at 0 h
A: 2000

* * *

experiment: in vivo; design: species or system mice; conditions: mouse, ip, 300 mg/kg
Measurement Label: concentration at 2 h (µM)
One number for each entry, in µM.

Q: # input compound: `O=c1ccn([C@@H]2O[C@H](CO)[C@@H](O)[C@H]2O)c(=O)[nH]1` ; wanted: its concentration at 2 h
A: 5.3
